# system_under_test: HER2 on the surface of N87 gastric cancer cells (human, UniProt P04626 23-1255)
# method_notes: cell-based or functional assay
The following binders are shown together with reported % cell viability (AL2) values.
Could you give me the number in %? Just the number is fine.

{"columns": ["binder", "unit_of_measure", "% cell viability (AL2)"],
 "data": [
  ["31YCM#5 source scFv (scFv) DIQMTQSPSSLSASVGDRVTITCKSNQNLLDSHGWTYLHWYQQKPGKAPKLLIYDASNLYSGVPSRFSGSGSGTDFTLTISSLQPEDFATYYCSQSYRLPYTFGQGTKVEIKREVQLVESGGGLVQPGGSLRLSCKASGYTFGGSYMHWVRQAPGKGLEWVARIYPHYGYTYYADSVKGRFTISADTSKNTAYLQMNSLRAEDTAVYYCARGDDHFDYWGQGTLVTVSSASAAA", "%", 71.8],
  ["31YCM#3 source scFv (scFv) DIQMTQSPSSLSASVGDRVTITCKSNQNLLISGNQWTFLNWYQQKPGKAPKLLIYDVSRLYSGVPSRFSGSGSGTDFTLTISSLQPEDFATYYCYQGSDFPGTFGQGTKVEIKREVQLVESGGGLVQPGGSLRLSCKASGYTFARSGMHWVRQAPGKGLEWVAGISPNYGLTHYADSVKGRFTISADTSKNTAYLQMNSLRAEDTAVYYCARGFGVLDYWGQGTLVTVSSASAAA", "%", 91.5],
  ["29TYL#1 source scFv (scFv) DIQMTQSPSSLSASVGDRVTITCKSNQNLLLSNGWTFLNWYQQKPGKAPKLLISRISDLYSGVPSRFSGSGSGTDFTLTISSLQPEDFATYYCFQASDFPYTFGQGTKVEIKREVQLVESGGGLVQPGGSLRLSCKASGYTFSTGSMHWVRQAPGKGLEWVAHINPHFGLTLYADSVKGRFTISADTSKNTAYLQMNSLRAEDTAVYYCAGSGFDYWGQGTLVTVSSASAAA", "%", 32.7],
  ["35WYK-9 source scFv (scFv) DIQMTQSPSSLSASVGDRVTITCKSNQNLLLSNGRTFLHWYQQKPGKAPKLLIFDVSNLYSGAPSRFSGSGSGTDFTLTISSLQPDDFATYYCSQTSRFPWTFGQGTKVEIKREVQLVESGGGLVQPGGSLRLSCKASGYTFSHWGMHWVRQAPGKGLEWVAGIYPYFGNTYYADSVKGRFTISADTSKNTAYLQMNSLRAEDTAVYYCARGLLDYWGQGTLVTVSSASAAA", "%", 80.9]
]}

So what's the measured % cell viability (AL2) for this one? 30CHS-13 source scFv (scFv) DIQMTQSPSSLSASVGDRVTITCKSNQNLLDSGNQRTYLNWYQQKPGKAPKLLIYHTSRLYSGVPSRFSGSGSGTDFTLTISSLQPEDFATYYCSQTFRHPGTFGQGTKVEIKREVQLVESGGGLVQPGGSLRLSCKASGYTFGHYSMFWVRQAPGKGLEWVASIYPHYGHTYYADSVKGRFTISADTSKNTAYLQMNSLRAEDTAVYYCARGHWLDYWGQGTLVTVSSASAAA 77.7
